Test: qHTS drug screen for cell cycle checkpoint inhibitors in PARPi-resistant BRCA-mutant ovarian cancer cell lines. (AID 1963452)
Details: PEO1/OlaR viability, CellTiter-Glo luminescence, 96 h; measured here: PEO1 parental Z-AUC; stronger effect = lower value
reported endpoint: Z-AUC
Answer as a number with no unit attached.

Noted for COc1ccc2[nH]c(C(=O)N3CCC(CC(C)(C)O)CC3)cc2c1 : its Z-AUC reads 0.0965

Form: molecule = Cc1[nH]c(/C=C2\C(=O)Nc3ccc(S(=O)(=O)Cc4c(Cl)cccc4Cl)cc32)c(C)c1C(=O)N1CCC[C@@H]1CN1CCCC1 ; Z-AUC = 0.565

Entry CCN(CC)CCNC(=O)c1c(C)[nH]c(/C=C2/C(=O)Nc3ccc(-c4csc(-c5ccccc5)n4)cc32)c1C , Z-AUC reported as 0.413

Kindly note the recorded Z-AUC for COc1cc2c3c(n(CCCn4ccnc4)c(=O)c2cc1OC)-c1cc2c(cc1C3=O)OCO2 , which is -2.51

Sample O=C(NO)c1ccc(C2=Nc3ccccc3Oc3ccccc32)cc1 ; Z-AUC observed: -1.06

Z-AUC reading for CO[C@H]1/C=C\C=C(\C)C(=O)NC2=CC(=O)C(NCCN(C)C)=C(C[C@@H](C)C[C@H](OC)[C@H](O)[C@@H](C)/C=C(/C)[C@@H]1OC(N)=O)C2=O : -2.33

Form: molecule = C=C1CCC2[C@](C)(CO)C(O)CC[C@]2(C)C1C/C=C1/C(=O)OCC1O (stereo partly drawn) ; Z-AUC = -0.31

What the record says about CC#Cc1cncc(-c2ccc3c(c2)[C@@]2(N=C(C)C(N)=N2)C2(CCC(OC)CC2)C3)c1 (stereo partly drawn) : Z-AUC is 0.521

Item: CC1(N)CCN(c2cnc(-c3cccc(Cl)c3Cl)c(N)n2)CC1 | Z-AUC: -0.626

The recorded Z-AUC for entry CC1(C)SCCN(S(=O)(=O)c2ccc(OCC#CCO)cc2)[C@H]1C(=O)NO equals 0.238

The measured Z-AUC associated with O=C(CCNC(=O)c1ccc(OC(F)(F)F)cc1)N[C@@H]1CCCc2ccccc21 reads 0.0965

Entry C=C1C(=O)O[C@@H]2[C@H]3C(C)=CC[C@@]34O[C@@]4(C)CC[C@@H]12 ; Z-AUC = 0.182

Field Z-AUC (entry Cc1cc(O)c(-c2ccc([C@@H](C)CN)cc2)c2c1[nH]c(=O)c1sccc12 ) reads -2.78

Measured Z-AUC of C=CC(=O)N1CCC(CNc2ncnc(N)c2-c2ccc(Oc3ccccc3)cc2)CC1 : 1.18

Per the record, CONC(=O)Nc1ccc(-c2sc3c(c2CN(C)Cc2ccccc2)c(=O)n(-c2ccccc2)c(=O)n3Cc2c(F)cccc2F)cc1 has Z-AUC of -0.886

Z-AUC for COc1ccc(C(=O)N2CCN(c3ccc4c(c3)CCC(=O)N4)CC2)cc1OC is 0.0272

So, O=C(Nc1cnccc1Cl)N1CCN(Cc2ccc3c(c2)OC(F)(F)O3)CC1 ? Its Z-AUC was 0.137

Reported Z-AUC ( Cc1[nH]nc2ncc(C(=O)N3CCC[C@H]3c3ccc(Cl)cc3)cc12 ) = 0.0336

---

Assay: qHTS Assay for Identification of Small Molecule Antagonists for NFkB Signaling Pathway (AID 895)
Details: NFkB beta-lactamase reporter cells, FRET ratio 460/530, stimulated with 10 pM TNF alpha; series mostly up to 38.3 µM
Results filed as inconclusive are left out. The source made the active and inactive calls. The call rests on the fitted dose curve; in most records, active means well fitted inhibition curve with a large enough effect in the signal ratio, with a control signal flat (not every such curve was filed as active); inconclusive means small, poorly fitted or top-dose-only effect, or effect the other way, or a change in a side signal; inactive means flat fitted curve, though single readings scatter; the % refers to the signal ratio.
Pick from yes (active), no (inactive) when you respond.

Inquiry: Tell me the assay call for CC(=O)NCCc1ccc(O)c(O)c1 please.
Reply text: no

Inquiry: For NCCC(=O)NCCc1cnc[nH]1 , what call appears in the results of this test?
Reply text: no

Inquiry: GET /call?item= CC(C)CN(C)c1nc(N)c(C(=O)N=C(N)N)nc1Cl returns the recorded outcome of this test.
Reply text: no

Inquiry: In this assay, the call recorded for Oc1ccc(/C=C\c2cc(O)cc(O)c2)cc1 was what?
Reply text: no

Inquiry: Assay outcome for N=C1Sc2ccccc2C2=NCCCN12 : what was it?
Reply text: yes

Inquiry: I'd appreciate the recorded outcome for CCn1c(=O)c2[nH]c(-c3ccccc3)nc2n(CC)c1=O from this test.
Reply text: no
